- measurement_protocol: Metabolic stability in serum (unknown origin)
- Assay type: ADME
metric_name: Stability

Illustrative cases are given below, each with its answer.
- molecule: "CC(C)OC(=O)[C@H](C)N[P@](=O)(OC[C@H]1O[C@@](C#N)(c2ccc3c(N)ncnn23)[C@](C)(O)[C@@H]1OC(=O)C(C)C)Oc1ccccc1"
  Stability: "Stable"
- molecule: "CC[C@@H](C)OC(=O)[C@H](C)NP(=O)(OC[C@H]1O[C@@](C#N)(c2ccc3c(N)ncnn23)[C@](C)(O)[C@@H]1O)Oc1ccccc1 (stereo partly specified)"
  Stability: "Stable"
- molecule: "CC(C)OC(=O)[C@H](C)NP(=O)(OC[C@H]1O[C@@](C#N)(c2ccc3c(N)ncnn23)[C@]2(C)OC(=O)O[C@H]12)Oc1ccccc1 (stereo partly specified)"
  Stability: "Stable"
- molecule: "CC(C)OC(=O)[C@H](C)NP(=O)(OC[C@H]1O[C@@](C#N)(c2ccc3c(N)ncnn23)[C@](C)(O)[C@@H]1OC(=O)C(C)C)Oc1ccccc1 (stereo partly specified)"
  Stability: "Stable"
- molecule: "CC(C)OC(=O)[C@H](C)NP(=O)(OC[C@H]1O[C@@](C#N)(c2ccc3c(N)ncnn23)[C@](C)(O)[C@@H]1O)Oc1ccccc1 (stereo partly specified)"
  Stability: "Stable"

Value of Stability reported for the molecule CC[C@H](C)OC(=O)[C@H](C)NP(=O)(OC[C@H]1O[C@@](C#N)(c2ccc3c(N)ncnn23)[C@](C)(O)[C@@H]1O)Oc1ccccc1 (stereo partly specified) is Stable

----------
- measurement_protocol: Lipophilicity, log D of the compound by HPLC/UV method
- Type: physicochemical
metric_name: logD
Enter a number only.

Some solved cases for reference:
- compound: "CC[C@@H](C)OC(=O)[C@H](C)NP(=O)(OC[C@H]1O[C@@](C#N)(c2ccc3c(N)ncnn23)[C@](C)(O)[C@@H]1O)Oc1ccccc1 (stereo partly specified)"
  logD: 1.9
- compound: "CC(C)OC(=O)[C@H](C)NP(=O)(OC[C@H]1O[C@@](C#N)(c2ccc3c(N)ncnn23)[C@](C)(O)[C@@H]1OC(=O)C(C)C)Oc1ccccc1 (stereo partly specified)"
  logD: 2.9
- compound: "COC(=O)[C@H](C)NP(=O)(OC[C@H]1O[C@@](C#N)(c2ccc3c(N)ncnn23)[C@](C)(O)[C@@H]1O)Oc1ccccc1 (stereo partly specified)"
  logD: 1.3
- compound: "CC(C)OC(=O)[C@H](C)NP(=O)(OC[C@H]1O[C@@](C#N)(c2ccc3c(N)ncnn23)[C@](C)(O)[C@@H]1O)Oc1ccccc1 (stereo partly specified)"
  logD: 1.8
- compound: "CCC(CC)COC(=O)[C@H](C)NP(=O)(OC[C@H]1O[C@@](C#N)(c2ccc3c(N)ncnn23)[C@](C)(O)[C@@H]1O)Oc1ccccc1 (stereo partly specified)"
  logD: 2.7

Consider CCOC(=O)[C@H](C)NP(=O)(OC[C@H]1O[C@@](C#N)(c2ccc3c(N)ncnn23)[C@](C)(O)[C@@H]1O)Oc1ccccc1 (stereo partly specified) . Its measured logD is 1.6

----------
- measurement_protocol: Aqueous solubility of the compound in phosphate buffer at pH 7 by reverse-phase UPLC-UV method
- Assay type: physicochemical
Quick reference for solubility among some molecules
In your response, put the unit directly after the numeric value.

Record summary for C[C@H](NP(=O)(OC[C@H]1O[C@@](C#N)(c2ccc3c(N)ncnn23)[C@](C)(O)[C@@H]1O)Oc1ccccc1)C(=O)OCC(C)(C)C (stereo partly drawn) : reported solubility = 115 µg/mL

Per the records, this molecule ( C[C@H](NP(=O)(OC[C@H]1O[C@@](C#N)(c2ccc3c(N)ncnn23)[C@](C)(O)[C@@H]1O)Oc1ccccc1)C(=O)OC(C)(C)C (stereo partly drawn) ) has solubility equal to 380 µg/mL

get_value(item= C[C@H](NP(=O)(OC[C@H]1O[C@@](C#N)(c2ccc3c(N)ncnn23)[C@](C)(O)[C@@H]1O)Oc1ccccc1)C(=O)OC1CCCC1 (stereo partly drawn) , readout=solubility) returns 10 µg/mL

----------
- measurement_protocol: Oral absorption in beagle dog at 5 mg/kg, po by LC/MS/MS analysis
- Type: ADME, organism-based, Canis lupus familiaris
- Parameters: dose 5 mg/kg, route oral
- recorded_conditions: in vivo
metric_name: Fa

Some molecules with recorded Fa:
- molecule: "CC(C)OC(=O)[C@H](C)NP(=O)(OC[C@H]1O[C@@](C#N)(c2ccc3c(N)ncnn23)[C@]2(C)OC(=O)O[C@H]12)Oc1ccccc1 (some centres not stated)"
  metric_name: "Fa"
  test_result: "29%"
- molecule: "CCC(CC)COC(=O)[C@H](C)NP(=O)(OC[C@H]1O[C@@](C#N)(c2ccc3c(N)ncnn23)[C@](C)(O)[C@@H]1O)Oc1ccccc1 (some centres not stated)"
  metric_name: "Fa"
  test_result: "7.9%"
- molecule: "CC[C@@H](C)OC(=O)[C@H](C)NP(=O)(OC[C@H]1O[C@@](C#N)(c2ccc3c(N)ncnn23)[C@](C)(O)[C@@H]1O)Oc1ccccc1 (some centres not stated)"
  metric_name: "Fa"
  test_result: "8.1%"

Sure, the documented Fa for CC(C)OC(=O)[C@H](C)NP(=O)(OC[C@H]1O[C@@](C#N)(c2ccc3c(N)ncnn23)[C@](C)(O)[C@@H]1OC(=O)C(C)C)Oc1ccccc1 (some centres not stated) is 88%

Sure, the documented Fa for CC[C@H](C)OC(=O)[C@H](C)NP(=O)(OC[C@H]1O[C@@](C#N)(c2ccc3c(N)ncnn23)[C@](C)(O)[C@@H]1O)Oc1ccccc1 (some centres not stated) is 16%

Form: molecule = CC(C)OC(=O)[C@H](C)NP(=O)(OC[C@H]1O[C@@](C#N)(c2ccc3c(N)ncnn23)[C@](C)(O)[C@@H]1O)Oc1ccccc1 (some centres not stated) ; Fa = 10%

Quick note, Fa for C[C@H](NP(=O)(OC[C@H]1O[C@@](C#N)(c2ccc3c(N)ncnn23)[C@](C)(O)[C@@H]1O)Oc1ccccc1)C(=O)OCC(C)(C)C (some centres not stated) landed at 13%

----------
- measurement_protocol: AUC (0 to infinity) in portal vein cannulated beagle dog at 0.5 mg/kg, iv by LC/MS/MS analysis
- Assay type: ADME, organism-based, Canis lupus familiaris
- Parameters: time infinity, dose 0.5 mg/kg, route intravenous
- recorded_conditions: plasma
AUC(0-inf) for assorted compounds

- compound: "CC(C)OC(=O)[C@H](C)NP(=O)(OC[C@H]1O[C@@](C#N)(c2ccc3c(N)ncnn23)[C@](C)(O)[C@@H]1O)Oc1ccccc1 (stereo not given in full)"
  test_result: "0.99 µM·h"
- compound: "C[C@H](NP(=O)(OC[C@H]1O[C@@](C#N)(c2ccc3c(N)ncnn23)[C@](C)(O)[C@@H]1O)Oc1ccccc1)C(=O)OCC(C)(C)C (stereo not given in full)"
  test_result: "0.25 µM·h"
- compound: "CCC(CC)COC(=O)[C@H](C)NP(=O)(OC[C@H]1O[C@@](C#N)(c2ccc3c(N)ncnn23)[C@](C)(O)[C@@H]1O)Oc1ccccc1 (stereo not given in full)"
  test_result: "0.21 µM·h"
- compound: "CC[C@@H](C)OC(=O)[C@H](C)NP(=O)(OC[C@H]1O[C@@](C#N)(c2ccc3c(N)ncnn23)[C@](C)(O)[C@@H]1O)Oc1ccccc1 (stereo not given in full)"
  test_result: "0.46 µM·h"

Here's the next entry for you.
Entry CC[C@H](C)OC(=O)[C@H](C)NP(=O)(OC[C@H]1O[C@@](C#N)(c2ccc3c(N)ncnn23)[C@](C)(O)[C@@H]1O)Oc1ccccc1 (stereo not given in full) — recorded AUC(0-inf) = 0.8 µM·h

----------
- measurement_protocol: Toxicity in po dosed Sprague-Dawley rat assessed as necrosis in organs administered qd for 7 days
- Type: organism-based
- recorded_conditions: in vivo
metric_name: NOAEL at 168 h

According to the records, this compound "C[C@@]1(O)[C@H](O)[C@@H](CO)O[C@H]1c1ccc2c(N)ncnn12" displays NOAEL at 168 h of < 5 mg/kg/day

----------
- Test system: Syrian golden hamster
- measurement_protocol: Cmax in golden syrian hamster assessed as liver triphosphate level at 1 mg/kg, iv by LC/MS/MS analysis
- Assay type: ADME, organism-based, Mesocricetus auratus
- Design: dose 1 mg/kg, route intravenous
- recorded_conditions: in vivo
metric_name: Cmax (µM)
// note: answer is a bare numeric in µM

Example molecules with recorded Cmax:
- molecule: "CCOC(=O)[C@H](C)NP(=O)(OC[C@H]1O[C@@](C#N)(c2ccc3c(N)ncnn23)[C@](C)(O)[C@@H]1O)Oc1ccccc1 (stereo partly drawn)"
  system_name: "Syrian golden hamster"
  Cmax / µM: 4.48
- molecule: "C[C@H](NP(=O)(OC[C@H]1O[C@@](C#N)(c2ccc3c(N)ncnn23)[C@](C)(O)[C@@H]1O)Oc1ccccc1)C(=O)OCC(C)(C)C (stereo partly drawn)"
  system_name: "Syrian golden hamster"
  Cmax / µM: 5.18
- molecule: "CC(C)OC(=O)[C@H](C)NP(=O)(OC[C@H]1O[C@@](C#N)(c2ccc3c(N)ncnn23)[C@](C)(O)[C@@H]1OC(=O)C(C)C)Oc1ccccc1 (stereo partly drawn)"
  system_name: "Syrian golden hamster"
  Cmax / µM: 4.5
- molecule: "CC(C)OC(=O)[C@H](C)NP(=O)(OC[C@H]1O[C@@](C#N)(c2ccc3c(N)ncnn23)[C@]2(C)OC(=O)O[C@H]12)Oc1ccccc1 (stereo partly drawn)"
  system_name: "Syrian golden hamster"
  Cmax / µM: 1.92
- molecule: "C[C@H](NP(=O)(OC[C@H]1O[C@@](C#N)(c2ccc3c(N)ncnn23)[C@](C)(O)[C@@H]1O)Oc1ccccc1)C(=O)OC1CCCC1 (stereo partly drawn)"
  system_name: "Syrian golden hamster"
  Cmax / µM: 2.8

Entry CCC(CC)COC(=O)[C@H](C)NP(=O)(OC[C@H]1O[C@@](C#N)(c2ccc3c(N)ncnn23)[C@](C)(O)[C@@H]1O)Oc1ccccc1 (stereo partly drawn) , Cmax reported as 8.33

Lab book: Cmax of CC(C)OC(=O)[C@H](C)NP(=O)(OC[C@H]1O[C@@](C#N)(c2ccc3c(N)ncnn23)[C@](C)(O)[C@@H]1O)Oc1ccccc1 (stereo partly drawn) noted as 5.65

Cmax in this record for COC(=O)[C@H](C)NP(=O)(OC[C@H]1O[C@@](C#N)(c2ccc3c(N)ncnn23)[C@](C)(O)[C@@H]1O)Oc1ccccc1 (stereo partly drawn) : 6.35

Cited source for all entries: ChEMBL document CHEMBL3120104
